- System: SW-620 colon
- Procedure Summary: NCI-60 one-dose screen, 48 h (100 = growth as untreated, 0 = no growth, -100 = all killed)
- Test Conditions: 10 µM unless noted
This is part of a sample that, as a whole, favours compounds with a hit. Of some 83,000 tested, about 20% had one in any assay. Activity calls are given as the source filed them. Rule for the calls: active = growth percent below 10; inactive = the rest.
Provide the recorded growth for the entries that follow.

// query Need growth, item C=CCn1c(SCC(=O)Nc2cccc(C(=O)/C=C/c3ccc(Br)cc3)c2)nc2ccccc2c1=O
// result 76.3% (inactive)

// query # input compound: O=C(NNc1nc2cc(F)c(F)cc2n2cccc12)c1cccnn1 ; wanted: its growth
// result 22% (inactive)

// query Which measured growth value corresponds to Cc1nn(-c2ccc(Br)cc2)c2nc(CCl)[nH]c(=O)c12 ?
// result 110% (inactive)

// query Recorded growth of O=C1Nc2ccc(Br)cc2/C1=N\c1nnc(-c2ccc(Cl)cc2)o1 , please.
// result 16.5% (inactive)

// query What value of growth has been recorded for this entry: C[C@@H]1C[C@H]2C(=O)OCC(NC(=O)[C@H](Cc3cc(F)cc(F)c3)NC(=O)Nc3ccc(Cl)cc3F)C(=O)N3CCC[C@H]3C(=O)N3CCCC[C@H]3C(=O)N[C@@H](C)C(=O)N2C1 (stereo not given in full)
// result 37.7% (inactive)

// query For the compound O=C(CSc1ccc(-c2nc3ccccc3[nH]2)cn1)N1CCN(c2ccccc2F)CC1 , what growth is on record?
// result 106% (inactive)

// query Record request: growth value, item COc1ccc([C@H]2[C@H](O)C(=O)N2c2cc(OC)c(OC)c(OC)c2)cc1
// result 20.3% (inactive)

// query Look at this compound and give its reported growth. COc1ccc(NC2=C(Cl)C(=O)C(C)=C(C)C2=O)cc1
// result 94.3% (inactive)

// query Look at this compound and give its reported growth. C#C[C@]1(O)CC[C@H]2[C@@H]3CC=C4c5sc(Nc6cc(OC)ccc6OC)nc5CC[C@]4(C)[C@H]3CC[C@@]21C
// result 18.4% (inactive)

// query Please give the measured growth for this compound: CN(c1ccc(F)cc1)S(=O)(=O)c1ccc(-c2cnc(C3CC3)o2)cc1
// result 32.9% (inactive)

// query Query (compound): Oc1ccc(CSc2nnc(-c3cnccn3)n2-c2ccccc2)c2cccnc12 ; field requested: growth
// result 23.8% (inactive)

// query Look up growth: COC[C@]12CC[C@@H](C)[C@H](C)[C@H]1C1=CC[C@@H]3[C@@]4(C)CCCNC(C)(C)[C@@H]4CC[C@@]3(C)[C@]1(C)CC2
// result -42.1% (active)

// query Which measured growth value corresponds to O=C(NNc1nc2cc(F)cc(F)c2n2cccc12)c1ncccn1 ?
// result 21.6% (inactive)

// query Query: growth; subject: C/C(=N/Nc1nc(N/N=C(/C)c2ccc([N+](=O)[O-])cc2)nc(N2CCOCC2)n1)c1ccc([N+](=O)[O-])cc1
// result 95.5% (inactive)

// query Using the record for C#C[C@]1(O)CC[C@H]2[C@@H]3CC=C4c5sc(-c6ccccn6)nc5CC[C@]4(C)[C@H]3CC[C@@]21C , report its growth.
// result 74.2% (inactive)

====

- Test system: NCI-H23 lung
- Procedure Summary: NCI-60 one-dose screen, 48 h (100 = growth as untreated, 0 = no growth, -100 = all killed)
- Test Conditions: 10 µM unless noted
Compounds without any hit were thinned out: in the full panel of roughly 83,000, 20% have a hit.
Label scheme for growth: lower than 70% is class 0, 70% and above is class 1.

// query Check this molecule for growth at or above 70%: COc1ccc(CCN2C(=O)CSC2=S)cc1OC
// result class 1

// query Confirm if growth reported for the molecule O=c1[nH]c(CNc2ccc(NCc3c(-c4ccccc4)no[n+]3[O-])cc2)nc2c1cnn2-c1ccccc1 is 70% or above.
// result class 0

// query Confirm if growth reported for the molecule COc1cc([C@H]2OC[C@H]3[C@@H]2CO[C@@H]3c2ccc(O)c(OC)c2)ccc1O is 70% or above.
// result class 1

// query Hello, I need to know if COc1ccccc1/C=C/C(=O)c1nnn(-c2ccc(C(=O)O)cc2)c1C has measured growth not below 70%. Thanks!
// result class 1

// query Hi team, for C/C(=N\NC(=O)CSc1nc2sc3c(c2c(=O)n1-c1ccccc1)CCC(C)C3)c1ccc(Cl)cc1 (configuration not stated) , is the recorded growth at or above 70%?
// result class 0

The reported measurements were obtained from PubChem BioAssay (NCI).
